target: PAI-1 (Homo sapiens, UniProt P05121); assay: biochemical; type: biochemical; settings: 20 μm
Sequence (P05121 24-402): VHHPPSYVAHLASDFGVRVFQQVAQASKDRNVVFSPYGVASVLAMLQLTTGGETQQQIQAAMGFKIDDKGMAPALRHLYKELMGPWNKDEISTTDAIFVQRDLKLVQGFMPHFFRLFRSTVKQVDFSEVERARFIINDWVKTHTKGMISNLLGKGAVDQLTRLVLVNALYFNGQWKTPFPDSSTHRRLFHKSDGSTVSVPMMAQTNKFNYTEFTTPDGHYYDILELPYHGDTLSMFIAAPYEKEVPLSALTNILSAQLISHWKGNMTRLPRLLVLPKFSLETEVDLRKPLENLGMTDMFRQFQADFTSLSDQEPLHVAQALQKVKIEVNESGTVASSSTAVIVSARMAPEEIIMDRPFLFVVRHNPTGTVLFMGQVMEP
Structures can show the parent of a compound that is named as a salt.
Assay readout: % Inhibition (%)
Respond numerically; units are % and should not be typed.

Would you please look over these solved cases?
# Molecule, Measurement unit, % Inhibition
records = [
    ("Cc1ccc(/C=c2\\[nH]c(=O)/c(=C/c3ccc(SCCN(C)C)cc3)[nH]c2=O)cc1 [Compound 5463]", "%", 78),
    ("CN(C)CCSc1ccc(/C=c2\\[nH]c(=O)/c(=C/c3cccc(Br)c3)[nH]c2=O)cc1 [Compound 5425.HCl]", "%", 47),
    ("COC(=O)c1ccc(/C=c2\\[nH]c(=O)/c(=C/c3ccc(SCCN(C)C)s3)[nH]c2=O)cc1 [Compound 5477.HCl]", "%", 69),
    ("CN(C)CCSc1ccc(/C=c2\\[nH]c(=O)/c(=C/c3cn(C)c4ccccc34)[nH]c2=O)cc1 [Compound 5497.HCl]", "%", 59),
    ("CN(C)CCSc1ccc(/C=c2\\[nH]c(=O)/c(=C/c3cccc(C(F)(F)F)c3)[nH]c2=O)cc1 [Compound 5423.HCl]", "%", 35),
    ("CSc1ccc(/C=c2\\[nH]c(=O)/c(=C/c3ccc(SCCN(C)C)cc3)[nH]c2=O)cc1 [Compound 5426.HCl]", "%", 55),
]

Turning to the following molecule.
% Inhibition for CN(C)CCSc1ccc(/C=c2\[nH]c(=O)/c(=C/c3cccc([N+](=O)[O-])c3)[nH]c2=O)cc1 [Compound 5422] ?
21

This collection of values is drawn from patent US5750530A.
